- assay_target: Carbonic anhydrase 1 (Homo sapiens, UniProt P00915)
- Sequence (P00915 whole entry): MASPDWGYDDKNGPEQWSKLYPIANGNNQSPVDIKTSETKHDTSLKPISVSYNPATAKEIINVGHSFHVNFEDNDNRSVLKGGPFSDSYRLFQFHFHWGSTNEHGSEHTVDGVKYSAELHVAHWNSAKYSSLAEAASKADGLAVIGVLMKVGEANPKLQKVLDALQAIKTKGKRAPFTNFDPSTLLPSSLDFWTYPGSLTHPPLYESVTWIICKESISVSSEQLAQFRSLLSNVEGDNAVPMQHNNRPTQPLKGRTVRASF
- assay_overview: Inhibition of recombinant human cytosolic carbonic anhydrase 1 assessed as inhibition of CO2 hydration preincubated for 15 mins prior to testing by phenol red based stopped-flow CO2 hydration assay
observation_type: Ki (µM)
// return numeric value only (unit: µM, not printed)

What measured Ki goes with CC(=O)c1nn(-c2ccc(S(N)(=O)=O)cc2)c2nc3nc(-c4cccs4)cc(-c4ccccc4)c3c(=O)n12 ? 6.78

###

- assay_target: Carbonic anhydrase 9 (Homo sapiens, UniProt Q16790)
observation_type: Ki (nM)
Report as a plain number; the unit nM is understood.

Entry CC(=O)c1nn(-c2ccc(S(N)(=O)=O)cc2)c2nc3nc(-c4ccc(Cl)cc4)cc(-c4ccc(Cl)cc4)c3c(=O)n12 has what Ki? 350

Record request: Ki value, item CCOC(=O)c1nn(-c2ccc(S(N)(=O)=O)cc2)c2nc3nc(-c4cccs4)cc(-c4ccc(OC)cc4)c3c(=O)n12 380

// Ki lookup, key: CCOC(=O)c1nn(-c2ccc(S(N)(=O)=O)cc2)c2nc3nc(-c4cccs4)cc(-c4ccc([N+](=O)[O-])cc4)c3c(=O)n12 1100

// Ki lookup, key: CCOC(=O)c1nn(-c2ccc(S(N)(=O)=O)cc2)c2nc3nc(-c4ccc(Cl)cc4)cc(-c4ccc([N+](=O)[O-])cc4)c3c(=O)n12 2460

Name the reported Ki value associated with the compound CC(=O)c1nn(-c2ccc(S(N)(=O)=O)cc2)c2nc3nc(-c4cccs4)cc(-c4ccc([N+](=O)[O-])cc4)c3c(=O)n12 160

Dear colleague, I am looking for the recorded Ki of the following compound: CC(=O)c1nn(-c2ccc(S(N)(=O)=O)cc2)c2nc3nc(-c4cccs4)cc(-c4ccc(Cl)cc4)c3c(=O)n12 990

So what does the record say about Ki for CC(=O)c1nn(-c2ccc(S(N)(=O)=O)cc2)c2nc3nc(-c4cccs4)cc(-c4ccccc4)c3c(=O)n12 ? 1120

Item CCOC(=O)c1nn(-c2ccc(S(N)(=O)=O)cc2)c2nc3nc(-c4cccs4)cc(-c4ccccc4)c3c(=O)n12 has what recorded Ki? 1900

Endpoint output: Ki of COc1ccc(-c2cc(-c3cccs3)nc3nc4n(-c5ccc(S(N)(=O)=O)cc5)nc(C(C)=O)n4c(=O)c23)cc1 . Value? 420

Consider the compound shown here: CCOC(=O)c1nn(-c2ccc(S(N)(=O)=O)cc2)c2nc3nc(-c4ccc(Cl)cc4)cc(-c4ccc(Cl)cc4)c3c(=O)n12 What is its recorded Ki? 1460

Which Ki value belongs to CC(=O)c1nn(-c2ccc(S(N)(=O)=O)cc2)c2nc3nc(-c4cccs4)cc(-c4ccc(F)cc4)c3c(=O)n12 ? 190
